Target system: Proteasome component C5 (Homo sapiens)
Assay overview: Inhibition of immunoproteasome caspase-like activity in human […] using […] as substrate pretreated for 2 hrs followed by substrate addition measured after 10 mins by luminescence assay
Format: cell-based
Readout name: Ki50 (µM)

(A) CC(C)C[C@H](NC(=O)[C@H](Cc1ccccc1)NC(=O)c1cnccn1)B(O)O
(B) COc1ccc(C[C@H](NC(=O)[C@H](C)NC(=O)CN2CCOCC2)C(=O)N[C@@H](Cc2ccccc2)C(=O)[C@]2(C)CO2)cc1
Out of A and B , name the one with the higher Ki50. Reply with the label of the item you choose. B
(B: 1.32 µM, A: 0.03 µM)

====

Target system: Proteasome Macropain subunit MB1 (Homo sapiens) (UniProt P28074)
Sequence (P28074 whole entry): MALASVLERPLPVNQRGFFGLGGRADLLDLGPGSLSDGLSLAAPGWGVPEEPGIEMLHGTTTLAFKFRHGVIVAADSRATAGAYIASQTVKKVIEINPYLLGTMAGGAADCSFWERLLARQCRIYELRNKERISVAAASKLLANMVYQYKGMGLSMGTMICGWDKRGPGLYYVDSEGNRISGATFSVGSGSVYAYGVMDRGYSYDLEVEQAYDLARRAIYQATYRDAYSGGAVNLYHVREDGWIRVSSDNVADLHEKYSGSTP
Assay overview: Inhibition of immunoproteasome chymotrypsin-like activity in human […] using Suc-LLVY-Glo as substrate pretreated for 2 hrs followed by substrate addition measured after 10 mins by luminescence assay
Format: cell-based
Readout name: Ki50 (µM)

(P) COc1ccc(C[C@H](NC(=O)[C@H](C)NC(=O)CN2CCOCC2)C(=O)N[C@@H](Cc2ccccc2)C(=O)[C@]2(C)CO2)cc1
(Q) CC(C)C[C@H](NC(=O)[C@H](Cc1ccccc1)NC(=O)c1cnccn1)B(O)O
Out of P and Q , name the one with the higher Ki50. Reply with the label of the item you choose. P
(P: 0.11 µM, Q: 0.01 µM)

====

Target system: UniProt:P20618
Sequence (P20618 whole entry): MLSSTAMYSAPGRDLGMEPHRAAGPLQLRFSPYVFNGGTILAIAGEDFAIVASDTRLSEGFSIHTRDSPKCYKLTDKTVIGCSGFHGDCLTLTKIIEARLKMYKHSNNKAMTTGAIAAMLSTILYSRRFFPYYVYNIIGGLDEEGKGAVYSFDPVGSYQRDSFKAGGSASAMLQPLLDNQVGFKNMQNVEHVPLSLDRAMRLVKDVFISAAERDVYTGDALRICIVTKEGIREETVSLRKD
Assay overview: Inhibition of immunoproteasome caspase-like activity in human […] using […] as substrate pretreated for 2 hrs followed by substrate addition measured after 10 mins by luminescence assay
Format: cell-based
Readout name: Ki50

Guide cases for Ki50, answers given:
1) CC(C)Cc1ccc([C@H](C)C(=O)N[C@H](C(=O)N[C@H]2CSCCNC(=O)/C=C/[C@H](C)NC2=O)C(C)C)cc1 | > 10 µM
2) CCCCCCCCCCCCNC(=O)N[C@H](C(=O)N[C@H]1CSCCNC(=O)/C=C/[C@H](C)NC1=O)C(C)C | > 10 µM

Kindly consider the entry below.
Return reported Ki50; argument: `CC(C)[C@H](NC(=O)c1cnccn1)C(=O)N[C@H]1CSCCNC(=O)/C=C/[C@H](C)NC1=O` > 10 µM

====

Target system: Proteasome Macropain subunit MB1 (Homo sapiens) (UniProt P28074)
Assay overview: Inhibition of immunoproteasome chymotrypsin-like activity in human […] using Suc-LLVY-Glo as substrate pretreated for 2 hrs followed by substrate addition measured after 10 mins by luminescence assay
Format: cell-based
Readout name: Ki50

Guide cases for Ki50, answers given:
1. CCCCCCCCCCCCNC(=O)N[C@H](C(=O)N[C@H]1CSCCNC(=O)/C=C/[C@H](C)NC1=O)C(C)C | > 10 µM
2. CC(C)[C@H](NC(=O)c1cnccn1)C(=O)N[C@H]1CSCCNC(=O)/C=C/[C@H](C)NC1=O | > 10 µM

Return reported Ki50; argument: `CC(C)Cc1ccc([C@H](C)C(=O)N[C@H](C(=O)N[C@H]2CSCCNC(=O)/C=C/[C@H](C)NC2=O)C(C)C)cc1` > 10 µM
